# targetOrSystem: MET (human) (Homo sapiens, UniProt P08581)
# Sequence (P08581 25-1390): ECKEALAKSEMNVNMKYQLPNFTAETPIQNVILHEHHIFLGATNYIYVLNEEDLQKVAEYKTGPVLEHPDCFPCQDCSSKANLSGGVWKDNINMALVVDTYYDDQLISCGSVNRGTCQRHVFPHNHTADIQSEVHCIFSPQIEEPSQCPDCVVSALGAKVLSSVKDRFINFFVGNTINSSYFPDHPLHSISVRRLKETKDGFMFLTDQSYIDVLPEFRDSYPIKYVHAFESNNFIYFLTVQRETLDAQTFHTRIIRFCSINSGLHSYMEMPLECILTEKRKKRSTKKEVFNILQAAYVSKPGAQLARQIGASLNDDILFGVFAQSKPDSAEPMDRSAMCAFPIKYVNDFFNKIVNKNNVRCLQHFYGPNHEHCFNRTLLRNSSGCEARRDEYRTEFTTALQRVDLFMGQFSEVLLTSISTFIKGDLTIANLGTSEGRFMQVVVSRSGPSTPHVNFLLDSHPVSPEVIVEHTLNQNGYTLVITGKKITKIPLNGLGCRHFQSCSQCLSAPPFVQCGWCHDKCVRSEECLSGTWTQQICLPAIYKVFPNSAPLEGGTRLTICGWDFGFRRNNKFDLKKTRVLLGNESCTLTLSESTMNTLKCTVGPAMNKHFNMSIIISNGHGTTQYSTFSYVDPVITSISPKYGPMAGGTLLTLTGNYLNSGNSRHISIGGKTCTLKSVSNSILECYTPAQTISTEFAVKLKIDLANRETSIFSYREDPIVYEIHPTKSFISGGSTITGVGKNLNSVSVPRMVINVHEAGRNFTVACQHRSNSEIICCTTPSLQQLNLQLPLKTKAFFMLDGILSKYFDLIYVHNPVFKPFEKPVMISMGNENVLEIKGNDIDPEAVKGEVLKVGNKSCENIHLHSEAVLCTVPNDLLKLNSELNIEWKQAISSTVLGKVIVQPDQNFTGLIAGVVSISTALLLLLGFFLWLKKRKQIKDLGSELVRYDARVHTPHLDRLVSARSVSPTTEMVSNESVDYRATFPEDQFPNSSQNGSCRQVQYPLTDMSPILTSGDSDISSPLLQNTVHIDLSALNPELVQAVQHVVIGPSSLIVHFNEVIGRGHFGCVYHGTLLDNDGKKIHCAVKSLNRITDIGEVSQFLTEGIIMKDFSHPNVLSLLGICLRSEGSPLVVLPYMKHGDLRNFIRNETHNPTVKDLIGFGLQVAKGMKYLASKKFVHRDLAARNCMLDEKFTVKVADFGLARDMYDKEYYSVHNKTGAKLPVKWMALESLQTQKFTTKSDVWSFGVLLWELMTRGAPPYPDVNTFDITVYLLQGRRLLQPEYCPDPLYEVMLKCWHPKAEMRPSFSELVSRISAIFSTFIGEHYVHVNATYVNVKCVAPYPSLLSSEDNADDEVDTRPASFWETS
Structures can show the parent of a compound that is named as a salt.
Some compounds, each annotated with its measured IC50.

# annotated cases, reported IC50 shown
CC(C)n1cc(-c2cnc(N)c(-c3cc4ccccc4o3)c2)cn1 [Example 102, bis-hydrochloride]	0.1 to 1 µM
COCCNC(=O)Cn1cc(-c2cnc(N)c(-c3nc4ccccc4s3)c2)cn1	1 to 20 µM
Cc1c(-c2cc(-c3cnn(C4CCNCC4)c3)cnc2N)sc2ccccc12 [Example 105, bishydrochloride]	1 to 20 µM
Nc1ncc(-c2cnc(N3CCNCC3)s2)cc1-c1nc2ccccc2s1 [Example 122, dihydrochloride]	0.1 to 1 µM
Nc1ncc(C#CCNC(=O)CN2CCCC2)cc1-c1nc2ccccc2s1	1 to 20 µM

Sample Nc1ncc(-c2cnn(C3CCNCC3)c2)cc1-c1cc2cc(C(F)(F)F)ccc2cn1 [Example 16, trihydrochloride salt] — what was its IC50?
0.1 to 1 µM

Sample CN(C)C(=O)Cn1cc(-c2cnc(N)c(-c3nc4ccccc4s3)c2)cn1 — what was its IC50?
1 to 20 µM

Sample Nc1ncc(-c2ccc(NCCN3CCOCC3)nc2)cc1-c1cc2c(Cl)ccc(F)c2cn1 — what was its IC50?
1 to 20 µM

* * *

Some molecules, each annotated with its measured IC50.
# targetOrSystem: MET (human) (Homo sapiens, UniProt P08581)
# experimentDescription: MET kinase AlphaScreen assay (Km of ATP)
# Format: biochemical
# conditionSet: ATP at Km; at least duplicate experiments
Structures can show the parent of a compound that is named as a salt.

# annotated cases, reported IC50 shown
Nc1ncc(-c2cnn([C@H]3CCNC3)c2)cc1-c1cc2c(Cl)ccc(F)c2cn1 [Example 63, trihydrochloride]	0.1 to 1 µM
Nc1ncc(-c2cnn(CCC(=O)N3CCC(O)C3)c2)cc1-c1nc2ccccc2s1 (stereo not drawn)	0.1 to 1 µM
Nc1ncc(-c2cnn(C3CCNCC3)c2)cc1-c1nc2c(OC(F)(F)F)cccc2s1	0.1 to 1 µM
Nc1ncc(-c2cnn(CC(=O)N3CCCCC3)c2)cc1-c1nc2ccccc2s1	1 to 20 µM
CC(C(=O)N1CCC(O)C1)n1cc(-c2cnc(N)c(-c3nc4ccccc4s3)c2)cn1 (stereo not drawn)	1 to 20 µM
Nc1ncc(-c2ccc(OCC(=O)NCCCN3CCCC3=O)cc2)cc1-c1nc2ccccc2s1	1 to 20 µM

Sample Nc1ncc(-c2cnn(C3CCNCC3)c2)cc1-c1cc2ccc(-c3ccccc3)cc2cn1 [Example 26, tri-hydrochloride salt] — what was its IC50?
0.1 to 1 µM

Sample C[C@@H]1CN(C(=O)c2cccc(-c3cnc(N)c(-c4nc5ccccc5s4)c3)c2)C[C@H](C)O1 — what was its IC50?
1 to 20 µM

Sample Nc1ncc(-c2cnn(C3CCNCC3)c2)cc1-c1cc2ccc(Cl)cc2cn1 [Example 41, trihydrochloride] — what was its IC50?
0.1 to 1 µM

Sample Nc1ncc(-c2cnn(C3CCNCC3)c2)cc1-c1cc2cc(Cl)ccc2cn1 [Example 40, trihydrochloride] — what was its IC50?
0.1 to 1 µM

Sample Nc1ncc(-c2cnn(C3CCN(CC(=O)N4CCC(O)C4)CC3)c2)cc1-c1nc2ccccc2s1 (stereo not drawn) — what was its IC50?
≤ 0.1 µM

Sample Nc1ncc(-c2cnn(C3CCNCC3)c2)cc1-c1cc2cccc(Br)c2cn1 [Example 24, trihydrochloride salt] — what was its IC50?
0.1 to 1 µM

* * *

Counter-ions that a name gives are not always drawn.
Notes on IC50 obtained with RON (human) (Homo sapiens, UniProt Q04912).
Sequence (Q04912 25-1400): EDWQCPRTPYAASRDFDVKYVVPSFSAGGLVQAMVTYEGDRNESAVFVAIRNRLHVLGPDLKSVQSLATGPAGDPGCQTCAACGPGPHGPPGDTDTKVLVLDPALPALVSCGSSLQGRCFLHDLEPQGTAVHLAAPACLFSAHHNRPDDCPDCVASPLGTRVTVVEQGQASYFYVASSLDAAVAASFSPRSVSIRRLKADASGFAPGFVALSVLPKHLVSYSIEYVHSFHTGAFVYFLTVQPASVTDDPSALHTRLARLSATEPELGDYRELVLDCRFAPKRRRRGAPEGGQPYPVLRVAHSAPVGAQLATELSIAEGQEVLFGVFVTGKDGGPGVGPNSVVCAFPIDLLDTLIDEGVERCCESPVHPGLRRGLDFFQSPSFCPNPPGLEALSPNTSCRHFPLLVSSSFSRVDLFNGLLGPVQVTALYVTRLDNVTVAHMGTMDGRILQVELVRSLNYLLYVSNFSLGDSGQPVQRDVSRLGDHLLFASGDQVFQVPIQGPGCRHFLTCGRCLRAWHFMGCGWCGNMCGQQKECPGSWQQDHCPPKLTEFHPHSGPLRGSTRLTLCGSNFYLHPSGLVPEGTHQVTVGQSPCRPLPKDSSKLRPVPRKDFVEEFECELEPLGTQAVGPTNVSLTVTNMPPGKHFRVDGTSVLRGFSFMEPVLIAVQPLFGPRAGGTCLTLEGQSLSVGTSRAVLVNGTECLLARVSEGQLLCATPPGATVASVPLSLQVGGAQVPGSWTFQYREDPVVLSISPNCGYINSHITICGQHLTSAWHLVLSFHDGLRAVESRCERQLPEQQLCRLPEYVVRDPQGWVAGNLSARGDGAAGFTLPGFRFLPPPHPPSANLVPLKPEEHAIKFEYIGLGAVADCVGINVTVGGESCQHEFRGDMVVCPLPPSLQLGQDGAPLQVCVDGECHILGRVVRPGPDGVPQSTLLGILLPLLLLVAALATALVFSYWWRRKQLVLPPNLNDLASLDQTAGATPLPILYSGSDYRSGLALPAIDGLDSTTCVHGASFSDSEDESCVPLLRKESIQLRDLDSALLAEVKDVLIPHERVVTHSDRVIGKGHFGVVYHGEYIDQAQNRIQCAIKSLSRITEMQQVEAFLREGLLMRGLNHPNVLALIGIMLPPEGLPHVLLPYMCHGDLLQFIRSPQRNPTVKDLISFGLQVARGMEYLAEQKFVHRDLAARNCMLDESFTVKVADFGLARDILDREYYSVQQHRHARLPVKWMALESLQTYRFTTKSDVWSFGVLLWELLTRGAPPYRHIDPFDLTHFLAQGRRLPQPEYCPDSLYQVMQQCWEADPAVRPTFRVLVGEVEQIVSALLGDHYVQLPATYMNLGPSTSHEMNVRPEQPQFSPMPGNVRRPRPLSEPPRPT

# annotated cases, reported IC50 shown
Nc1ncc(-c2cnn(C3CCNCC3)c2)cc1-c1cc2cc(Br)ccc2cn1 [Example 23, trihydrochloride salt]	0.1 to 1 µM
Nc1ncc(-c2ccc(OCC(=O)NC3CCCCC3O)cc2)cc1-c1nc2ccccc2s1 (stereo not shown)	> 20 µM
Nc1ncc(-c2ccc(C(=O)NCc3ccco3)cc2)cc1-c1nc2ccccc2s1	1 to 20 µM
Nc1ncc(-c2cccc(C(=O)N3CCCCC3)c2)cc1-c1nc2ccccc2s1	> 20 µM
Nc1ncc(-c2cnn(C3CCNCC3)c2)cc1-c1cc2cc(Cl)cc(Cl)c2cn1 [Example 43, trihydrochloride]	0.1 to 1 µM
Cc1cccc2cc(-c3cc(-c4cnn(C5CCNCC5)c4)cnc3N)ncc12 [Example 5, trihydrochloride]	0.1 to 1 µM
CN1CCN(C(=O)c2cccc(-c3cnc(N)c(-c4nc5ccccc5s4)c3)c2)CC1	1 to 20 µM
Nc1ncc(-c2cnn(C3CCN(CC(F)(F)F)CC3)c2)cc1-c1cc2c(Cl)ccc(F)c2cn1 [Example 69, bis-hydrochloride]	1 to 20 µM
Nc1ncc(-c2ccncc2)cc1-c1cc2c(Cl)ccc(F)c2cn1	1 to 20 µM
Nc1ncc(-c2ccc(NCCN3CCOCC3)nc2)cc1-c1cc2c(Cl)ccc(F)c2cn1	1 to 20 µM

Any idea what IC50 came out for Nc1ncc(-c2cnn(C3CCNCC3)c2)cc1-c1cc2cc(-c3ccccc3)ccc2cn1 [Example 25, tri-hydrochloride salt] on RON (human) (Homo sapiens, UniProt Q04912)?
0.1 to 1 µM

Any idea what IC50 came out for Nc1ncc(-c2cnc(N3CCOCC3)s2)cc1-c1cc2c(Cl)ccc(F)c2cn1 on RON (human) (Homo sapiens, UniProt Q04912)?
> 20 µM

* * *

# targetOrSystem: RON (human) (Homo sapiens)
# experimentDescription: RON kinase AlphaScreen assay (Km of ATP)
# Format: biochemical
# conditionSet: ATP at Km; at least duplicate experiments
pIC50: −log10 of the molar value. Structures can show the parent of a compound that is named as a salt.
Some compounds, each annotated with its measured pIC50.

# annotated cases, reported pIC50 shown
Cc1c(-c2cc(-c3cnn(C4CCNCC4)c3)cnc2N)oc2ccccc12 [Example 94, bishydrochloride]	4.70 to 6.00
Nc1ncc(-c2cnn(C3CCNCC3)c2)cc1-c1nc2cccc(-c3cccnc3)c2s1 [Example 250, dihydrochloride]	6.00 to 7.00
Nc1ncc(-c2cnn(CCC(=O)N3CCOCC3)c2)cc1-c1nc2ccccc2s1 [Example 291]	< 4.70
N#Cc1ccc2cnc(-c3cc(-c4cnn(C5CCNCC5)c4)cnc3N)cc2c1 [Example 31, trihydrochloride salt]	4.70 to 6.00

Next:
Sample Nc1ncc(-c2cnn(C3CCNCC3)c2)cc1-c1cc2ccc(Br)cc2cn1 [Example 21, trihydrochloride salt] — what was its pIC50?
4.70 to 6.00

* * *

# targetOrSystem: RON (human) (Homo sapiens, UniProt Q04912)
Structures can show the parent of a compound that is named as a salt.
propertyLabel: IC50

# annotated cases, reported IC50 shown
CC(C)n1cc(-c2cnc(N)c(-c3cc4c(Cl)ccc(F)c4cn3)c2)cn1 [Example 66, bis-hydrochloride]	1000 to 20000 nM
Nc1ncc(-c2cccc(C(=O)N3CCC(O)C3)c2)cc1-c1nc2ccccc2s1 (stereo not shown) [Example 222]	1000 to 20000 nM
Nc1ncc(-c2cnn(CC(=O)NCCO)c2)cc1-c1nc2ccccc2s1 [Example 136]	1000 to 20000 nM

Next:
Sample COC(=O)COc1cccc(-c2cnc(N)c(-c3nc4ccccc4s3)c2)c1 [Example 234] — what was its IC50?
> 20000 nM

* * *

# targetOrSystem: RON (human) (Homo sapiens)
# experimentDescription: RON kinase AlphaScreen assay (Km of ATP)
# Type: biochemical
# conditionSet: ATP at Km; at least duplicate experiments
pIC50: −log10 of the molar value. Structures can show the parent of a compound that is named as a salt.
propertyLabel: pIC50

COc1nc(-c2cc(-c3cnn(C4CCNCC4)c3)cnc2N)cc2ccccc12 [Example 30, trihydrochloride salt]	4.70 to 6.00
Nc1ncc(-c2cnn(C3CCNCC3)c2)cc1-c1oc2ccccc2c1Cl [Example 93, dihydrochloride]	6.00 to 7.00
Nc1ncc(-c2cn[nH]c2)cc1-c1nc2ccccc2s1	4.70 to 6.00
Nc1ncc(-c2cnn(C3CCNCC3)c2)cc1-c1cc2c(-c3ccoc3)ccc(F)c2cn1 [Example 49, trihydrochloride]	6.00 to 7.00
CC(=O)Nc1ccc(-c2cnc(N)c(-c3cc4c(Cl)ccc(F)c4cn3)c2)cc1	< 4.70
Nc1ncc(-c2cccc(C(=O)N[C@H]3CCCC[C@@H]3O)c2)cc1-c1nc2ccccc2s1	4.70 to 6.00

Any idea what pIC50 came out for Nc1ncc(-c2cnn(C3CCN(CC(=O)N4CCC4)CC3)c2)cc1-c1nc2ccccc2s1 on RON (human) (Homo sapiens)?
6.00 to 7.00

Any idea what pIC50 came out for Nc1ncc(-c2cnn(C3CCNCC3)c2)cc1-c1ccc2ccccc2c1 [Example 304, trihydrochloride] on RON (human) (Homo sapiens)?
4.70 to 6.00

Any idea what pIC50 came out for COCCNC(=O)CCn1cc(-c2cnc(N)c(-c3nc4ccccc4s3)c2)cn1 on RON (human) (Homo sapiens)?
< 4.70

Any idea what pIC50 came out for Nc1ncc(-c2cnn(C3CCN(CC(=O)NCCO)CC3)c2)cc1-c1nc2ccccc2s1 on RON (human) (Homo sapiens)?
6.00 to 7.00

Any idea what pIC50 came out for Cc1nc(-c2cc(-c3cnn(C4CCNCC4)c3)cnc2N)cc2ccccc12 [Example 1, trihydrochloride] on RON (human) (Homo sapiens)?
4.70 to 6.00

Any idea what pIC50 came out for Nc1ncc(-c2ccc(C(=O)O)nc2)cc1-c1nc2ccccc2s1 on RON (human) (Homo sapiens)?
4.70 to 6.00

Any idea what pIC50 came out for COCCN(CCOC)C(=O)C(C)n1cc(-c2cnc(N)c(-c3nc4ccccc4s3)c2)cn1 (stereo not drawn) on RON (human) (Homo sapiens)?
4.70 to 6.00

Source: patent US8178668B2
